Recorded values, source patent US20090118184A1.

Target: T1, factor VIIIa A1/A3C1C2 dimer, Glu1984Val (human, UniProt P00451 20-391; P00451 1709-2351)
T1 sequence 1: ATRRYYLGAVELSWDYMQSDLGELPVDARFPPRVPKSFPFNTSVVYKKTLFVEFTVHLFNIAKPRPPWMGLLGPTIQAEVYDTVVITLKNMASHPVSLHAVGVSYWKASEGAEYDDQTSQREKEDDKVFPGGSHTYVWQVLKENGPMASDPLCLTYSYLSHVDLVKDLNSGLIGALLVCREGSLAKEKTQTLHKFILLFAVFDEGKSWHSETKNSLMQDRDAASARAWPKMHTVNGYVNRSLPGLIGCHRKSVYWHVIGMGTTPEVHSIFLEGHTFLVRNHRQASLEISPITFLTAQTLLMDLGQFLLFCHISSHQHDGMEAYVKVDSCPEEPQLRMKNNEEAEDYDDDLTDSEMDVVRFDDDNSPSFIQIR
T1 sequence 2: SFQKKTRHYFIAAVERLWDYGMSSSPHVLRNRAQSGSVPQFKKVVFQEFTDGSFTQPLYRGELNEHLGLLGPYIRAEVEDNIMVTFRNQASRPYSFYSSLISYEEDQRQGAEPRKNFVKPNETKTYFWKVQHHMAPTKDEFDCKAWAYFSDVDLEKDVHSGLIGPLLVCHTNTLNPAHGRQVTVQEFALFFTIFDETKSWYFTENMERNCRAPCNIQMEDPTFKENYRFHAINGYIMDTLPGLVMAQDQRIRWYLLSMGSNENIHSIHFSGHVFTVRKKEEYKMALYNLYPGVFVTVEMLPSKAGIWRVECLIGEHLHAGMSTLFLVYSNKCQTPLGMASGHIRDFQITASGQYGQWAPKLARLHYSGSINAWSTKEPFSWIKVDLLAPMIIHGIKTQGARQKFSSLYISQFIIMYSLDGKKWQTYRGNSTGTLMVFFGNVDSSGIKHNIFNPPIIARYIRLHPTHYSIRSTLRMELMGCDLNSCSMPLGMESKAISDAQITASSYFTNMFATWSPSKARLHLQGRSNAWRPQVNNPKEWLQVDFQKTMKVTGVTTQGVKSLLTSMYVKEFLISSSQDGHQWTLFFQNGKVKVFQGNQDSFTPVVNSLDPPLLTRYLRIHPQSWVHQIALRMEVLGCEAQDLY
Assay: cell-based or functional assay
RECORDED_METRIC: Decay rate, Factor VIIIa (1.5 nM factor VIIIa, factor IXa absent) (min⁻¹)

[
  {
    "BINDER": "factor VIIIa A2 subunit, Glu665Ala (other) SVAKKHPKTWVHYIAAEEEDWDYAPLVLAPDDRSYKSQYLNNGPQRIGRKYKKVRFMAYTDETFKTREAIQHESGILGPLLYGEVGDTLLIIFKNQASRPYNIYPHGITDVRPLYSRRLPKGVKHLKDFPILPGEIFKYKWTVTVEDGPTKSDPRCLTRYYSSFVNMERDLASGLIGPLLICYKESVDQRGNQIMSDKRNVILFSVFDENRSWYLTENIQRFLPNPAGVQLEDPEFQASNIMHSINGYVFDSLQLSVCLHEVAYWYILSIGAQTDFLSVFFSGYTFKHKMVYADTLTLFPFSGETVFMSMENPGLWILGCHNSDFRNRGMTALLKVSSCDKNTGDYYEDSYEDISAYLLSKNNAIEPR",
    "MEASURED_RESULT": 0.127
  }
]
